experiment: self-splicing fitness, log relative to wild type (ln ratio); higher = more splicing; Tetrahymena group I intron in knt gene, E. coli kanamycin selection, DiMSum; sequences stand for … in CUCUCU…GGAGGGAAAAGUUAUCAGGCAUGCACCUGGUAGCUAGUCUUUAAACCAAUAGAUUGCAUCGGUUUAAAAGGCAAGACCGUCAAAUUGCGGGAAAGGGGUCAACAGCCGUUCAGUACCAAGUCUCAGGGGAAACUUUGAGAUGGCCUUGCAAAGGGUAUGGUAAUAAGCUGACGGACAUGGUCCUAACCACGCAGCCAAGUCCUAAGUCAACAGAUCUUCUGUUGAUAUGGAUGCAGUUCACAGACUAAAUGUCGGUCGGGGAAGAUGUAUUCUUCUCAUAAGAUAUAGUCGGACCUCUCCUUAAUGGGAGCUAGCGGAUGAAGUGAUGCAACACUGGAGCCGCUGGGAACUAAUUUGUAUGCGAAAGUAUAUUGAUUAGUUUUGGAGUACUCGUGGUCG; conditions: 37 °C;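 note: selection with 25 µg/mL kanamycin versus none on LB agar overnight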
Classes are defined on self-splicing fitness (ln) with ranges bin A = under -2, bin B = from -2 up to -0.9, bin C = -0.9 and over

# residueSequence, group
records = [
    ("AGGCAGCAAUAUUACGUUAC", "bin A"),
    ("CCUAAGCAAUAUUACGACGC", "bin B"),
    ("CUAAAGCAAUAUUACGAGCG", "bin C"),
    ("AUAGAGCAAUAUUACGCAAC", "bin B"),
    ("AAGAAGCAAUAUUACGCUUU", "bin A"),
    ("AAGCAGCAAUAUUACGCCGC", "bin A"),
    ("UGGCAGCAAUAUUACGUAAG", "bin C"),
    ("AGGUAGCAAUAUUACGAGUG", "bin B"),
    ("GCGCAGCAAUAUUACGCGUC", "bin A"),
    ("UUCGAGCAAUAUUACGUUUU", "bin A"),
    ("GUCUAGCAAUAUUACGGACA", "bin C"),
    ("GAAGAGCAAUAUUACGCUUG", "bin B"),
    ("UUGGAGCAAUAUUACGUAUG", "bin B"),
    ("UUUGAGCAAUAUUACGUUUA", "bin A"),
    ("GAGUAGCAAUAUUACGACGC", "bin C"),
    ("CACUAGCAAUAUUACGCCCC", "bin C"),
    ("UCUCAGCAAUAUUACGACCA", "bin C"),
    ("UGCUAGCAAUAUUACGAGCU", "bin C"),
    ("UCUUAGCAAUAUUACGGUCG", "bin B"),
    ("CCUAAGCAAUAUUACGGGUC", "bin A"),
    ("AUUUAGCAAUAUUACGCUAA", "bin B"),
    ("UCUGAGCAAUAUUACGGACG", "bin A"),
    ("CAAUAGCAAUAUUACGGAGA", "bin A"),
    ("CUAAAGCAAUAUUACGGCCA", "bin A"),
    ("CUAGAGCAAUAUUACGCGUA", "bin A"),
    ("UAGCAGCAAUAUUACGGUGA", "bin C"),
    ("GAAUAGCAAUAUUACGUAUA", "bin B"),
    ("GUACAGCAAUAUUACGCUGU", "bin A"),
    ("UUUGAGCAAUAUUACGAACA", "bin A"),
    ("CAUUAGCAAUAUUACGCUCC", "bin B"),
    ("AAAAAGCAAUAUUACGUGCC", "bin B"),
    ("UCUCAGCAAUAUUACGAGCU", "bin C"),
    ("CUGGAGCAAUAUUACGGGUC", "bin A"),
    ("AGACAGCAAUAUUACGUCGG", "bin C"),
    ("AGAAAGCAAUAUUACGGGAU", "bin B"),
    ("UUCCAGCAAUAUUACGCACU", "bin C"),
    ("GUCUAGCAAUAUUACGAAAC", "bin C"),
    ("AGUAAGCAAUAUUACGUGAA", "bin B"),
    ("GCGUAGCAAUAUUACGAGAG", "bin A"),
    ("UGCUAGCAAUAUUACGUAAA", "bin B"),
    ("AUGGAGCAAUAUUACGAGCA", "bin B"),
    ("CAACAGCAAUAUUACGAGAU", "bin B"),
    ("AUUAAGCAAUAUUACGACCG", "bin C"),
    ("CGAUAGCAAUAUUACGAAGU", "bin A"),
    ("GCCCAGCAAUAUUACGCGCA", "bin C"),
    ("GUACAGCAAUAUUACGGAUC", "bin C"),
    ("CCUCAGCAAUAUUACGCGUG", "bin C"),
    ("ACGGAGCAAUAUUACGGAUA", "bin A"),
    ("GCUGAGCAAUAUUACGUGUG", "bin B"),
    ("GCCCAGCAAUAUUACGGCGC", "bin B"),
    ("GCGAAGCAAUAUUACGACCG", "bin C"),
    ("CGGUAGCAAUAUUACGCGCA", "bin C"),
    ("CUCAAGCAAUAUUACGACGA", "bin B"),
    ("CCUUAGCAAUAUUACGGUAC", "bin A"),
    ("UACUAGCAAUAUUACGGUCG", "bin C"),
    ("UUCAAGCAAUAUUACGCUGC", "bin B"),
    ("CUAUAGCAAUAUUACGGCCU", "bin B"),
    ("AGAUAGCAAUAUUACGGCUA", "bin C"),
    ("UUGGAGCAAUAUUACGAAGU", "bin C"),
    ("UGAUAGCAAUAUUACGACAC", "bin A"),
    ("UGACAGCAAUAUUACGUCCC", "bin B"),
    ("AUACAGCAAUAUUACGGGUU", "bin B"),
    ("AAUGAGCAAUAUUACGCAAC", "bin A"),
    ("AUGAAGCAAUAUUACGUAUU", "bin B"),
    ("GGUAAGCAAUAUUACGGCAA", "bin C"),
]

* * *

# self-splicing fitness (ln) per entry
test: self-splicing fitness, log relative to wild type (ln ratio); higher = more splicing; Tetrahymena group I intron in knt gene, E. coli kanamycin selection, DiMSum; sequences stand for … in CUCUCU…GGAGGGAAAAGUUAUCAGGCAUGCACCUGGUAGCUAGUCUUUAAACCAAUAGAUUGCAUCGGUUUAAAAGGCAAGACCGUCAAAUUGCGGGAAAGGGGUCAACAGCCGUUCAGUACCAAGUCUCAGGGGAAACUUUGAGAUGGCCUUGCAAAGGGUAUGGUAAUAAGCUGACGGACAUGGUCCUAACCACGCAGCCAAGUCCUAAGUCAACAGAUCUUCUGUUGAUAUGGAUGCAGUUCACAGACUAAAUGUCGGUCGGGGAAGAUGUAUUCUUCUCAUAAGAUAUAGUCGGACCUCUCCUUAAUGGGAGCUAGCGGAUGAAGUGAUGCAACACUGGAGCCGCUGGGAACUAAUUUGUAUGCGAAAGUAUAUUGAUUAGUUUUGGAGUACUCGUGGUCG; conditions: 30 °C

# residueSequence, self-splicing fitness (ln)
data = [
    ("UGUCAGCAAUAUUACGUGGC", -4.53),
    ("AGGGAGCAAUAUUACGUUCU", -3.19),
    ("CGCGAGCAAUAUUACGAGGU", -2.22),
    ("CGGUAGCAAUAUUACGCACG", -2.85),
    ("GCCGAGCAAUAUUACGGGUG", -0.694),
    ("ACUUAGCAAUAUUACGGGGC", -3.2),
    ("UUGCAGCAAUAUUACGAUCC", -3.64),
    ("GAGAAGCAAUAUUACGUGCU", -2.51),
    ("AUACAGCAAUAUUACGACCU", 0.331),
    ("CGAAAGCAAUAUUACGAACA", -1.92),
    ("ACAUAGCAAUAUUACGAAUA", -2.06),
    ("AUGGAGCAAUAUUACGAAAC", -2.72),
    ("GAAGAGCAAUAUUACGUGGA", -2.05),
    ("UUCGAGCAAUAUUACGCGUC", -2.99),
    ("UUACAGCAAUAUUACGGCGU", -2.6),
    ("CAUAAGCAAUAUUACGUUUA", -2.97),
]

* * *

assay: self-splicing fitness, log relative to wild type (ln ratio); higher = more splicing; Tetrahymena group I intron in knt gene, E. coli kanamycin selection, DiMSum; sequences stand for … in CUCUCU…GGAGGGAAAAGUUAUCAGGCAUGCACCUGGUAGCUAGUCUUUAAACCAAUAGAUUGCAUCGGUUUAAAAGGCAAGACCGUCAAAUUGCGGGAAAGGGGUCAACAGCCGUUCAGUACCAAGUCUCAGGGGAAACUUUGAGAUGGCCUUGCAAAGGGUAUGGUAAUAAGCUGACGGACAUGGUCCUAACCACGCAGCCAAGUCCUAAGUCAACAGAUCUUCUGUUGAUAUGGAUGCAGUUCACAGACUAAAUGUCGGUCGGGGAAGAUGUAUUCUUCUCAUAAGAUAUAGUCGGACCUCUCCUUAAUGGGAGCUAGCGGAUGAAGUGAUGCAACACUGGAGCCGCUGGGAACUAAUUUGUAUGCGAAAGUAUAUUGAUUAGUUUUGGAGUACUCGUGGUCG; details: 37 °C
# self-splicing fitness (ln) per entry

# residueSequence, self-splicing fitness (ln)
records = [
    ("UUAUAGCAAUAUUACGCCAU", -3.15),
    ("CCGCAGCAAUAUUACGUAUA", -3.03),
    ("GACGAGCAAUAUUACGUGCC", -1.97),
    ("GACCAGCAAUAUUACGCAAA", -0.859),
    ("CGCGAGCAAUAUUACGAGUC", -1.57),
    ("AGUAAGCAAUAUUACGCCAG", -1.58),
    ("AUGGAGCAAUAUUACGAUCG", -1.1),
    ("CCCGAGCAAUAUUACGCGGA", -2.23),
    ("GCCCAGCAAUAUUACGCCUC", 0.0191),
    ("UGCUAGCAAUAUUACGGCCA", -0.178),
    ("GACAAGCAAUAUUACGUGCG", -0.532),
    ("AACCAGCAAUAUUACGUUGG", -2.42),
    ("GUCGAGCAAUAUUACGGAAA", -2.11),
    ("CUCAAGCAAUAUUACGCGAA", -1.79),
    ("UCGCAGCAAUAUUACGACGU", -0.706),
    ("UUGCAGCAAUAUUACGAUCC", -1.68),
    ("GCUUAGCAAUAUUACGGGUA", -0.513),
    ("CGAAAGCAAUAUUACGUUCA", 0.0231),
    ("CUCCAGCAAUAUUACGAAGU", -2.98),
    ("UAAUAGCAAUAUUACGGCCU", -0.77),
    ("CCUGAGCAAUAUUACGGUGU", -2.32),
    ("GAAGAGCAAUAUUACGUUAG", -2.59),
    ("CAGCAGCAAUAUUACGCGAC", -0.925),
    ("UUAAAGCAAUAUUACGACAC", -0.0824),
    ("AAGAAGCAAUAUUACGACUA", 0.144),
    ("GUCGAGCAAUAUUACGCCAA", -2.6),
    ("CCUGAGCAAUAUUACGUUAU", -1.96),
    ("UCGUAGCAAUAUUACGUGCU", -2.83),
    ("CUCAAGCAAUAUUACGGACU", -1.36),
    ("GACAAGCAAUAUUACGGGGC", -2.81),
    ("CAAUAGCAAUAUUACGACUC", -0.701),
    ("GGUCAGCAAUAUUACGACCG", -1.26),
    ("ACUCAGCAAUAUUACGCGCU", -0.1),
    ("CACUAGCAAUAUUACGGGUU", -1.28),
]
